FYI, the data here is from patent US20120094909A1.

Biological target: cynomolgus monkey PCSK9 (cynomolgus monkey, UniProt A0A7N9D9N8 150-747)
Assay: FRET, competitor EGFA peptide
Here the recorded pEC50 is given for each entry.
Worth noting: pEC50 values are minus log10 of concentrations stated in mol/L.

>>> recorded_value("2382H09 (designed binder, Anti-PCSK9 Adnectin, His6-tagged) MGVSDVPRDLEVVAATPTSLLISWDAPAAAYGYYRITYGETGGNSPVQEFTVPSSKGTATISGLKPGVDYTITVYAVEFDFPGSGYYHRPISINYRTEIDKPSQHHHHHH")
7.75

Okay, now this binder:
Problem: # query: pEC50 of entry 2381G09 (designed binder, Anti-PCSK9 Adnectin, His6-tagged) MGVSDVPRDLEVVAATPTSLLISWDAPAGDGYGYYRITYGETGGNSPVQEFTVPVSKGTATISGLKPGVDYTITVYAVEFTFPGAGYYHRPISINYRTEIDKPSQHHHHHH
Result: 7.60
